Readings of GI50 for the listed compounds
target: BAF3 FL KIT EX11DEL/V654A (Homo sapiens, UniProt P10721, V654A, cells depend on it, form not given); construct: "BAF3 FL KIT EX11DEL/ V654A"; test: c-Kit assay: Ba/F3 KIT mutant viability (Cell Titer-Glo, 72 hours); format: cell-based; conditions: viability after 72 hours
Sequence (P10721 with tags, fused parts or gaps DEL557-558/V654A, form open): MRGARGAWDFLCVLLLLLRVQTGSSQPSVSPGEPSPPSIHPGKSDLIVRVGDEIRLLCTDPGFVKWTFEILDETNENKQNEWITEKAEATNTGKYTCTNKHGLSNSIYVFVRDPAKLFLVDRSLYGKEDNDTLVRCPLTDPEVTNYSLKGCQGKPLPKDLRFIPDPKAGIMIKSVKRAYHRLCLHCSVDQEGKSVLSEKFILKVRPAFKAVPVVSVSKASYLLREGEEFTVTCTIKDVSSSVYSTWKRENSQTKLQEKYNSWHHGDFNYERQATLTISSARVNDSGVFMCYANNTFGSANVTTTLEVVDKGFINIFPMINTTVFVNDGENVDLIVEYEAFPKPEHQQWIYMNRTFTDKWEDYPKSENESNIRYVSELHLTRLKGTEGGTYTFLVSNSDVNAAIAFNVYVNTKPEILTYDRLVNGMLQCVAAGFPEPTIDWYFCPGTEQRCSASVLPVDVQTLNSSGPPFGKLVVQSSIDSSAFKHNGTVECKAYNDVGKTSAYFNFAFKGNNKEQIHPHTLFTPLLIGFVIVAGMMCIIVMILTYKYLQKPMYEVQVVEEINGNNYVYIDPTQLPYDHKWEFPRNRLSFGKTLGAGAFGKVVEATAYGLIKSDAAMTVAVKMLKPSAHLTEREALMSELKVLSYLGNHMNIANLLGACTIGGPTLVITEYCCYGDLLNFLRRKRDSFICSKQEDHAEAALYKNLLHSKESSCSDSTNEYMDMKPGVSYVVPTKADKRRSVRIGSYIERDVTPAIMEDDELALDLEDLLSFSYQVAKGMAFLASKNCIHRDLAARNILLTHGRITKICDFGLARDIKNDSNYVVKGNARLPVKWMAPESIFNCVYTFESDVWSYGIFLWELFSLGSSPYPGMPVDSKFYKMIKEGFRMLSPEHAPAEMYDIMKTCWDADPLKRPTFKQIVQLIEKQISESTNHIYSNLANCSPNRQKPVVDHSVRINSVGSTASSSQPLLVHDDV
readout-label: GI50

{"cpd-smiles": "Cc1ccc(C(=O)Nc2cc(C(F)(F)F)ccn2)cc1C#Cc1ccc2c(c1)ncn2-c1cn[nH]c1", "readout-label": "GI50", "readout-value": "10 to 50 nM"}
{"cpd-smiles": "Cc1ccc(NC(=O)c2ccc(CN3CCCC3)c(C(F)(F)F)c2)cc1C#Cc1ccc2c(c1)ncn2-c1cnn(C)c1", "readout-label": "GI50", "readout-value": "100 to 10000 nM"}
{"cpd-smiles": "Cc1ccc(C(=O)Nc2ccc(C#N)c(C(F)(F)F)c2)cc1C#Cc1ccc2c(c1)ncn2-c1ccn(C)n1", "readout-label": "GI50", "readout-value": "50 to 100 nM"}
